B1: H2-Kb / H6 (parent)
chain 1: AQKVTQTQTSISVMEKTTVTMDCVYETQDSSYFLFWYKQTASGEIVFLIRQDSYKKENATVGHYSLNFQKPKSSIGLIITATQIEDSAVYFCAMRDYNQGKLIFGQGTKLSIKP
chain 2: EAAVTQSPRSKVAVTGGKVTLSCHQTNNHDYMYWYRQDTGHGLRLIHYSYVADSTEKGDIPDGYKASRPSQENFSLILELASLSQTAVYFCASSGTAANSDYTFGSGTRLLVI
chain 3: not shown
chain 4: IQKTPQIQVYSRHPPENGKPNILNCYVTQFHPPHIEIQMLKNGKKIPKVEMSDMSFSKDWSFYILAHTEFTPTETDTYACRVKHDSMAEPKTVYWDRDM
chain 5: SIINFEKL

Variants of: B1
Test Summary: % of reporter cells activated (NFAT-GFP), raw; note: test concentration or dose not given here
Condition Set: with H6; scale: % of reporter cells activated
Label yes when ratio to parent is at or above 0.5; anything below gets no.

Identify whether the reported ratio to parent of the following variant is 0.5 or greater: chain 5 F5C
yes

Identify whether the reported ratio to parent of the following variant is 0.5 or greater: chain 5 F5N
no

Identify whether the reported ratio to parent of the following variant is 0.5 or greater: chain 5 F5I
yes

Identify whether the reported ratio to parent of the following variant is 0.5 or greater: chain 5 L8S
no

Identify whether the reported ratio to parent of the following variant is 0.5 or greater: chain 5 N4M
no

Identify whether the reported ratio to parent of the following variant is 0.5 or greater: chain 5 F5L
yes

Identify whether the reported ratio to parent of the following variant is 0.5 or greater: chain 5 I3V
yes

Identify whether the reported ratio to parent of the following variant is 0.5 or greater: chain 5 I3F
no

Identify whether the reported ratio to parent of the following variant is 0.5 or greater: chain 5 L8A
no

Identify whether the reported ratio to parent of the following variant is 0.5 or greater: chain 5 F5D
no

Identify whether the reported ratio to parent of the following variant is 0.5 or greater: chain 5 I3W
no

Identify whether the reported ratio to parent of the following variant is 0.5 or greater: chain 5 N4R
no

Identify whether the reported ratio to parent of the following variant is 0.5 or greater: chain 5 I2T
yes

Identify whether the reported ratio to parent of the following variant is 0.5 or greater: chain 5 S1V
no

Identify whether the reported ratio to parent of the following variant is 0.5 or greater: chain 5 I2L
yes

Identify whether the reported ratio to parent of the following variant is 0.5 or greater: chain 5 N4T
no

Identify whether the reported ratio to parent of the following variant is 0.5 or greater: chain 5 I3K
no

Identify whether the reported ratio to parent of the following variant is 0.5 or greater: chain 5 L8N
no

Identify whether the reported ratio to parent of the following variant is 0.5 or greater: chain 5 K7M
no

Identify whether the reported ratio to parent of the following variant is 0.5 or greater: chain 5 L8M
yes

Identify whether the reported ratio to parent of the following variant is 0.5 or greater: chain 5 K7Y
no

Identify whether the reported ratio to parent of the following variant is 0.5 or greater: chain 5 F5R
no

Identify whether the reported ratio to parent of the following variant is 0.5 or greater: chain 5 I3M
yes

Identify whether the reported ratio to parent of the following variant is 0.5 or greater: chain 5 K7E
no

Identify whether the reported ratio to parent of the following variant is 0.5 or greater: chain 5 K7W
no

Identify whether the reported ratio to parent of the following variant is 0.5 or greater: chain 5 F5H
yes

Identify whether the reported ratio to parent of the following variant is 0.5 or greater: chain 5 S1W
no

Identify whether the reported ratio to parent of the following variant is 0.5 or greater: chain 5 I2Y
no

Identify whether the reported ratio to parent of the following variant is 0.5 or greater: chain 5 L8F
no

Identify whether the reported ratio to parent of the following variant is 0.5 or greater: chain 5 L8C
no

Identify whether the reported ratio to parent of the following variant is 0.5 or greater: chain 5 F5S
yes

Identify whether the reported ratio to parent of the following variant is 0.5 or greater: chain 5 I3E
yes

Identify whether the reported ratio to parent of the following variant is 0.5 or greater: chain 5 S1D
yes

Identify whether the reported ratio to parent of the following variant is 0.5 or greater: chain 5 K7H
yes

Identify whether the reported ratio to parent of the following variant is 0.5 or greater: chain 5 L8W
no

Identify whether the reported ratio to parent of the following variant is 0.5 or greater: chain 5 I2A
yes

Identify whether the reported ratio to parent of the following variant is 0.5 or greater: chain 5 I2F
yes

Identify whether the reported ratio to parent of the following variant is 0.5 or greater: chain 5 E6Y
no

Identify whether the reported ratio to parent of the following variant is 0.5 or greater: chain 5 F5K
no

Identify whether the reported ratio to parent of the following variant is 0.5 or greater: chain 5 N4L
no

Identify whether the reported ratio to parent of the following variant is 0.5 or greater: chain 5 S1P
no

Identify whether the reported ratio to parent of the following variant is 0.5 or greater: chain 5 L8Y
yes

Identify whether the reported ratio to parent of the following variant is 0.5 or greater: chain 5 N4C
no

Identify whether the reported ratio to parent of the following variant is 0.5 or greater: chain 5 E6I
no

Identify whether the reported ratio to parent of the following variant is 0.5 or greater: chain 5 K7L
no

Identify whether the reported ratio to parent of the following variant is 0.5 or greater: chain 5 L8I
yes

Identify whether the reported ratio to parent of the following variant is 0.5 or greater: chain 5 E6D
no

Identify whether the reported ratio to parent of the following variant is 0.5 or greater: chain 5 S1N
no

Identify whether the reported ratio to parent of the following variant is 0.5 or greater: chain 5 K7F
no

Identify whether the reported ratio to parent of the following variant is 0.5 or greater: chain 5 F5V
yes

Identify whether the reported ratio to parent of the following variant is 0.5 or greater: chain 5 K7A
no

Identify whether the reported ratio to parent of the following variant is 0.5 or greater: chain 5 F5T
yes

Identify whether the reported ratio to parent of the following variant is 0.5 or greater: chain 5 I2V
yes

Identify whether the reported ratio to parent of the following variant is 0.5 or greater: chain 5 I3A
yes

Identify whether the reported ratio to parent of the following variant is 0.5 or greater: chain 5 K7R
yes

Identify whether the reported ratio to parent of the following variant is 0.5 or greater: chain 5 S1A
yes

Identify whether the reported ratio to parent of the following variant is 0.5 or greater: chain 5 E6G
no

Identify whether the reported ratio to parent of the following variant is 0.5 or greater: chain 5 L8T
yes

Identify whether the reported ratio to parent of the following variant is 0.5 or greater: chain 5 N4W
yes

Identify whether the reported ratio to parent of the following variant is 0.5 or greater: chain 5 K7C
no

Identify whether the reported ratio to parent of the following variant is 0.5 or greater: chain 5 F5P
yes

Identify whether the reported ratio to parent of the following variant is 0.5 or greater: chain 5 I3Y
no

Identify whether the reported ratio to parent of the following variant is 0.5 or greater: chain 5 F5A
yes

Identify whether the reported ratio to parent of the following variant is 0.5 or greater: chain 5 I3T
yes

Identify whether the reported ratio to parent of the following variant is 0.5 or greater: chain 5 E6K
no

Identify whether the reported ratio to parent of the following variant is 0.5 or greater: chain 5 S1Q
yes

Identify whether the reported ratio to parent of the following variant is 0.5 or greater: chain 5 N4A
no

Identify whether the reported ratio to parent of the following variant is 0.5 or greater: chain 5 N4V
no

Identify whether the reported ratio to parent of the following variant is 0.5 or greater: chain 5 S1K
no

Identify whether the reported ratio to parent of the following variant is 0.5 or greater: chain 5 I2N
yes

Identify whether the reported ratio to parent of the following variant is 0.5 or greater: chain 5 I2G
yes

Identify whether the reported ratio to parent of the following variant is 0.5 or greater: chain 5 L8V
yes

Identify whether the reported ratio to parent of the following variant is 0.5 or greater: chain 5 N4P
yes

Identify whether the reported ratio to parent of the following variant is 0.5 or greater: chain 5 F5W
yes

Identify whether the reported ratio to parent of the following variant is 0.5 or greater: chain 5 I2S
yes

Identify whether the reported ratio to parent of the following variant is 0.5 or greater: chain 5 E6R
no

Identify whether the reported ratio to parent of the following variant is 0.5 or greater: chain 5 L8K
no

Identify whether the reported ratio to parent of the following variant is 0.5 or greater: chain 5 S1Y
no

Identify whether the reported ratio to parent of the following variant is 0.5 or greater: chain 5 N4E
no

Identify whether the reported ratio to parent of the following variant is 0.5 or greater: chain 5 L8E
no

Identify whether the reported ratio to parent of the following variant is 0.5 or greater: chain 5 L8R
no

Identify whether the reported ratio to parent of the following variant is 0.5 or greater: chain 5 N4F
no

Identify whether the reported ratio to parent of the following variant is 0.5 or greater: chain 5 I3Q
yes

Identify whether the reported ratio to parent of the following variant is 0.5 or greater: chain 5 L8D
no

Identify whether the reported ratio to parent of the following variant is 0.5 or greater: chain 5 K7I
no

Identify whether the reported ratio to parent of the following variant is 0.5 or greater: chain 5 I2E
yes

Identify whether the reported ratio to parent of the following variant is 0.5 or greater: chain 5 S1L
no

Identify whether the reported ratio to parent of the following variant is 0.5 or greater: chain 5 E6C
no

Identify whether the reported ratio to parent of the following variant is 0.5 or greater: chain 5 I2H
no

Identify whether the reported ratio to parent of the following variant is 0.5 or greater: chain 5 I3S
yes

Identify whether the reported ratio to parent of the following variant is 0.5 or greater: chain 5 E6A
no
